Values were extracted from the supplement of paper PMC10126150.

- Tested on: ATP;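 also: ATP exposure 15 min at 22 °C before imaging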
- assayProtocol: switch fluorescence ratio, 500 uM ATP over buffer (Cy3 cluster intensity, sum of 5 cycles each) (fold (ratio)); higher = stronger signal-on switching upon ATP binding; sequences stand for … in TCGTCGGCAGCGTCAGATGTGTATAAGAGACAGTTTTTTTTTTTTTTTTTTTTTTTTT…TC
- conditionDescription: aptamer strand: ATP DNA aptamer (quencher-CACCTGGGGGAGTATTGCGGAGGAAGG + anchor), 100 nM annealed; ATP concentration: 500 uM
experimentalReadout: switch fluorescence ratio

[[record]]
constructsequence = "TTGAATTCGG"
testtarget = "ATP"
experimentalreadout = "switch fluorescence ratio"
observedresult = 0.984

[[record]]
constructsequence = "GGTCTAGACG"
testtarget = "ATP"
experimentalreadout = "switch fluorescence ratio"
observedresult = 1.01

[[record]]
constructsequence = "CACATGACAC"
testtarget = "ATP"
experimentalreadout = "switch fluorescence ratio"
observedresult = 1.13

[[record]]
constructsequence = "ACGTAATTAA"
testtarget = "ATP"
experimentalreadout = "switch fluorescence ratio"
observedresult = 1.13

[[record]]
constructsequence = "GTGGAAAGGA"
testtarget = "ATP"
experimentalreadout = "switch fluorescence ratio"
observedresult = 0.991

[[record]]
constructsequence = "TGGGTGTGGT"
testtarget = "ATP"
experimentalreadout = "switch fluorescence ratio"
observedresult = 1

[[record]]
constructsequence = "AAACGGGGCT"
testtarget = "ATP"
experimentalreadout = "switch fluorescence ratio"
observedresult = 1.02

[[record]]
constructsequence = "GCCGGTAGGG"
testtarget = "ATP"
experimentalreadout = "switch fluorescence ratio"
observedresult = 0.98

[[record]]
constructsequence = "TTTTTTTTT"
testtarget = "ATP"
experimentalreadout = "switch fluorescence ratio"
observedresult = 1.01

[[record]]
constructsequence = "GGGAGTTTGG"
testtarget = "ATP"
experimentalreadout = "switch fluorescence ratio"
observedresult = 0.975

[[record]]
constructsequence = "TTTAGCCTTT"
testtarget = "ATP"
experimentalreadout = "switch fluorescence ratio"
observedresult = 1.06

[[record]]
constructsequence = "GTTTTAGTCA"
testtarget = "ATP"
experimentalreadout = "switch fluorescence ratio"
observedresult = 0.999

[[record]]
constructsequence = "AGGTTGGAGC"
testtarget = "ATP"
experimentalreadout = "switch fluorescence ratio"
observedresult = 1

[[record]]
constructsequence = "CATTTATGGG"
testtarget = "ATP"
experimentalreadout = "switch fluorescence ratio"
observedresult = 1.02

[[record]]
constructsequence = "AGAGGGAAGG"
testtarget = "ATP"
experimentalreadout = "switch fluorescence ratio"
observedresult = 0.959

[[record]]
constructsequence = "CGTGATGGAG"
testtarget = "ATP"
experimentalreadout = "switch fluorescence ratio"
observedresult = 1.01

[[record]]
constructsequence = "GTGCTTTGCG"
testtarget = "ATP"
experimentalreadout = "switch fluorescence ratio"
observedresult = 0.993

[[record]]
constructsequence = "GACGCTGTGC"
testtarget = "ATP"
experimentalreadout = "switch fluorescence ratio"
observedresult = 3.6

[[record]]
constructsequence = "ACTGCATCTA"
testtarget = "ATP"
experimentalreadout = "switch fluorescence ratio"
observedresult = 1.09

[[record]]
constructsequence = "TCGAGACTAG"
testtarget = "ATP"
experimentalreadout = "switch fluorescence ratio"
observedresult = 1.02

[[record]]
constructsequence = "TACGCTTTTT"
testtarget = "ATP"
experimentalreadout = "switch fluorescence ratio"
observedresult = 1.02

[[record]]
constructsequence = "CGGGTTAATA"
testtarget = "ATP"
experimentalreadout = "switch fluorescence ratio"
observedresult = 0.989

[[record]]
constructsequence = "TCGGGGCGGA"
testtarget = "ATP"
experimentalreadout = "switch fluorescence ratio"
observedresult = 0.994

[[record]]
constructsequence = "AGCTAATTTT"
testtarget = "ATP"
experimentalreadout = "switch fluorescence ratio"
observedresult = 1.02

[[record]]
constructsequence = "AACGTAGATA"
testtarget = "ATP"
experimentalreadout = "switch fluorescence ratio"
observedresult = 1.04

[[record]]
constructsequence = "GTTTTTGAGG"
testtarget = "ATP"
experimentalreadout = "switch fluorescence ratio"
observedresult = 0.977

[[record]]
constructsequence = "ATTGGATGTG"
testtarget = "ATP"
experimentalreadout = "switch fluorescence ratio"
observedresult = 0.981

[[record]]
constructsequence = "TAAGATGTAG"
testtarget = "ATP"
experimentalreadout = "switch fluorescence ratio"
observedresult = 0.996

[[record]]
constructsequence = "CATACTTTTT"
testtarget = "ATP"
experimentalreadout = "switch fluorescence ratio"
observedresult = 1.02

[[record]]
constructsequence = "TTTTCGGGCG"
testtarget = "ATP"
experimentalreadout = "switch fluorescence ratio"
observedresult = 0.944

[[record]]
constructsequence = "GAGAATGGCA"
testtarget = "ATP"
experimentalreadout = "switch fluorescence ratio"
observedresult = 0.964

[[record]]
constructsequence = "TATGCAGTCA"
testtarget = "ATP"
experimentalreadout = "switch fluorescence ratio"
observedresult = 1.01

[[record]]
constructsequence = "TTAAGTATTT"
testtarget = "ATP"
experimentalreadout = "switch fluorescence ratio"
observedresult = 0.997

[[record]]
constructsequence = "GGGTGGGTGT"
testtarget = "ATP"
experimentalreadout = "switch fluorescence ratio"
observedresult = 1.05

[[record]]
constructsequence = "AATTAGTTCG"
testtarget = "ATP"
experimentalreadout = "switch fluorescence ratio"
observedresult = 0.98

[[record]]
constructsequence = "TATGCTGCTG"
testtarget = "ATP"
experimentalreadout = "switch fluorescence ratio"
observedresult = 1.01

[[record]]
constructsequence = "ATAAAAATAT"
testtarget = "ATP"
experimentalreadout = "switch fluorescence ratio"
observedresult = 1.01

[[record]]
constructsequence = "GACACGGGGA"
testtarget = "ATP"
experimentalreadout = "switch fluorescence ratio"
observedresult = 1.01

[[record]]
constructsequence = "TTAAATATTT"
testtarget = "ATP"
experimentalreadout = "switch fluorescence ratio"
observedresult = 0.992

[[record]]
constructsequence = "TAAGAATCGC"
testtarget = "ATP"
experimentalreadout = "switch fluorescence ratio"
observedresult = 1.15

[[record]]
constructsequence = "ACGAGACGC"
testtarget = "ATP"
experimentalreadout = "switch fluorescence ratio"
observedresult = 1.16

[[record]]
constructsequence = "TTTCATGTGG"
testtarget = "ATP"
experimentalreadout = "switch fluorescence ratio"
observedresult = 0.995

[[record]]
constructsequence = "CTATGTGGGT"
testtarget = "ATP"
experimentalreadout = "switch fluorescence ratio"
observedresult = 1.02

[[record]]
constructsequence = "TTTTCCGTTC"
testtarget = "ATP"
experimentalreadout = "switch fluorescence ratio"
observedresult = 1.02

[[record]]
constructsequence = "GTTTGGGGAG"
testtarget = "ATP"
experimentalreadout = "switch fluorescence ratio"
observedresult = 0.977

[[record]]
constructsequence = "TTGAGTTTTA"
testtarget = "ATP"
experimentalreadout = "switch fluorescence ratio"
observedresult = 1.01

[[record]]
constructsequence = "GAGGGGGTGG"
testtarget = "ATP"
experimentalreadout = "switch fluorescence ratio"
observedresult = 1

[[record]]
constructsequence = "TCCAGGACGA"
testtarget = "ATP"
experimentalreadout = "switch fluorescence ratio"
observedresult = 1.05

[[record]]
constructsequence = "ACCCTTATAG"
testtarget = "ATP"
experimentalreadout = "switch fluorescence ratio"
observedresult = 1.02

[[record]]
constructsequence = "GGGGTGATCC"
testtarget = "ATP"
experimentalreadout = "switch fluorescence ratio"
observedresult = 1.01

[[record]]
constructsequence = "GGTCTGGCTT"
testtarget = "ATP"
experimentalreadout = "switch fluorescence ratio"
observedresult = 0.988

[[record]]
constructsequence = "ATGTAGGGGA"
testtarget = "ATP"
experimentalreadout = "switch fluorescence ratio"
observedresult = 1.01

[[record]]
constructsequence = "ACTGCCGTAT"
testtarget = "ATP"
experimentalreadout = "switch fluorescence ratio"
observedresult = 1.01

[[record]]
constructsequence = "TGGGGGGGCG"
testtarget = "ATP"
experimentalreadout = "switch fluorescence ratio"
observedresult = 0.998

[[record]]
constructsequence = "AGTGTGGTGG"
testtarget = "ATP"
experimentalreadout = "switch fluorescence ratio"
observedresult = 0.989

[[record]]
constructsequence = "GGGCTGTCAC"
testtarget = "ATP"
experimentalreadout = "switch fluorescence ratio"
observedresult = 0.997

[[record]]
constructsequence = "GGGGGACGTT"
testtarget = "ATP"
experimentalreadout = "switch fluorescence ratio"
observedresult = 0.981

[[record]]
constructsequence = "TTTGAGGTGT"
testtarget = "ATP"
experimentalreadout = "switch fluorescence ratio"
observedresult = 1.03

[[record]]
constructsequence = "GGGGCAAAGC"
testtarget = "ATP"
experimentalreadout = "switch fluorescence ratio"
observedresult = 0.96

[[record]]
constructsequence = "GTACCTGTCT"
testtarget = "ATP"
experimentalreadout = "switch fluorescence ratio"
observedresult = 0.99

[[record]]
constructsequence = "GGTTAAGGGT"
testtarget = "ATP"
experimentalreadout = "switch fluorescence ratio"
observedresult = 0.989

[[record]]
constructsequence = "ACTGCTTCCT"
testtarget = "ATP"
experimentalreadout = "switch fluorescence ratio"
observedresult = 1.34

[[record]]
constructsequence = "ACGGCTACGG"
testtarget = "ATP"
experimentalreadout = "switch fluorescence ratio"
observedresult = 1.02

[[record]]
constructsequence = "GATGAATTGC"
testtarget = "ATP"
experimentalreadout = "switch fluorescence ratio"
observedresult = 1.01

[[record]]
constructsequence = "CTTTTATAGT"
testtarget = "ATP"
experimentalreadout = "switch fluorescence ratio"
observedresult = 0.984

[[record]]
constructsequence = "ATTATGGTCG"
testtarget = "ATP"
experimentalreadout = "switch fluorescence ratio"
observedresult = 0.999

[[record]]
constructsequence = "GGGCTTGGGC"
testtarget = "ATP"
experimentalreadout = "switch fluorescence ratio"
observedresult = 0.976

[[record]]
constructsequence = "GATTTTGTAG"
testtarget = "ATP"
experimentalreadout = "switch fluorescence ratio"
observedresult = 1.01

[[record]]
constructsequence = "AAAATGGGTG"
testtarget = "ATP"
experimentalreadout = "switch fluorescence ratio"
observedresult = 0.976

[[record]]
constructsequence = "TTAGGGGGCA"
testtarget = "ATP"
experimentalreadout = "switch fluorescence ratio"
observedresult = 1.01

[[record]]
constructsequence = "TAGAAGGGCA"
testtarget = "ATP"
experimentalreadout = "switch fluorescence ratio"
observedresult = 0.988

[[record]]
constructsequence = "ACCATCAAGG"
testtarget = "ATP"
experimentalreadout = "switch fluorescence ratio"
observedresult = 0.982

[[record]]
constructsequence = "GGTCTTAGTT"
testtarget = "ATP"
experimentalreadout = "switch fluorescence ratio"
observedresult = 0.987

[[record]]
constructsequence = "ATTCATGTGT"
testtarget = "ATP"
experimentalreadout = "switch fluorescence ratio"
observedresult = 1.02

[[record]]
constructsequence = "GTTGTAAGGG"
testtarget = "ATP"
experimentalreadout = "switch fluorescence ratio"
observedresult = 0.998

[[record]]
constructsequence = "TTAAAGTAGT"
testtarget = "ATP"
experimentalreadout = "switch fluorescence ratio"
observedresult = 1.19

[[record]]
constructsequence = "TATCAGGGGG"
testtarget = "ATP"
experimentalreadout = "switch fluorescence ratio"
observedresult = 0.988

[[record]]
constructsequence = "CGGGAAGGCC"
testtarget = "ATP"
experimentalreadout = "switch fluorescence ratio"
observedresult = 0.988

[[record]]
constructsequence = "ACGGTTATTT"
testtarget = "ATP"
experimentalreadout = "switch fluorescence ratio"
observedresult = 1.07

[[record]]
constructsequence = "TATAAGGCTA"
testtarget = "ATP"
experimentalreadout = "switch fluorescence ratio"
observedresult = 1.02

[[record]]
constructsequence = "CTGAATTAGT"
testtarget = "ATP"
experimentalreadout = "switch fluorescence ratio"
observedresult = 1.01

[[record]]
constructsequence = "GCAGGGACCC"
testtarget = "ATP"
experimentalreadout = "switch fluorescence ratio"
observedresult = 1.12

[[record]]
constructsequence = "AGGGGATTAC"
testtarget = "ATP"
experimentalreadout = "switch fluorescence ratio"
observedresult = 1.06

[[record]]
constructsequence = "TGGTAAAGTG"
testtarget = "ATP"
experimentalreadout = "switch fluorescence ratio"
observedresult = 1.08

[[record]]
constructsequence = "TTTGCCAAAC"
testtarget = "ATP"
experimentalreadout = "switch fluorescence ratio"
observedresult = 1.52

[[record]]
constructsequence = "AGATAGGGAG"
testtarget = "ATP"
experimentalreadout = "switch fluorescence ratio"
observedresult = 0.979

